Tested on: Micrococcus luteus
Test: Antibacterial activity against Micrococcus luteus IFC 12708 after 24 hrs by two fold serial dilution method
Assay type: functional
Conditions: IFC 12708, 24 h
test_readout: MIC (µg/mL)

In the examples that follow, each entry is paired with its recorded MIC.
[[record]]
compound = "Oc1ccc(C(c2cc(Br)c(O)cc2O)c2cc(Br)c(O)cc2O)cc1"
measure_unit = "µg/mL"
reported_result = 0.78

[[record]]
compound = "O=[N+]([O-])c1ccc(C(c2ccc(O)cc2O)c2cc(Br)c(O)cc2O)cc1 (configuration not stated)"
measure_unit = "µg/mL"
reported_result = 50

[[record]]
compound = "O=[N+]([O-])c1cccc(C(c2ccc(O)cc2O)c2cc(Br)c(O)cc2O)c1 (configuration not stated)"
measure_unit = "µg/mL"
reported_result = 12.5


P = Oc1cc(O)c(C(c2cc(Br)c(O)cc2O)c2c(Cl)cccc2Cl)cc1Br
Q = O=[N+]([O-])c1ccc(C(c2cc(Br)c(O)cc2O)c2cc(Br)c(O)cc2O)cc1
R = Oc1ccc(C(c2ccc(O)cc2O)c2cc(Br)c(O)cc2O)cc1 (configuration not stated)
Rank order required: MIC, descending. Reply: labels, ordered per the request.
Q, R, P
(Q: 12.5 µg/mL, R: 3.12 µg/mL, P: 1.56 µg/mL)

a = O=[N+]([O-])c1cccc(C(c2cc(Br)c(O)cc2O)c2cc(Br)c(O)cc2O)c1
b = CCCCCC(c1ccc(O)cc1O)c1ccc(O)cc1O
Please indicate which item has the smaller measured MIC: a versus b Kindly state the label of the option you pick.
a
(a: 1.56 µg/mL, b: 12.5 µg/mL)

a = CCCCCC(c1cc(Br)c(O)cc1O)c1cc(Br)c(O)cc1O
b = Oc1ccc(C(c2cc(Br)c(O)cc2O)c2c(Cl)cccc2Cl)c(O)c1 (configuration not stated)
c = CCCCCC(c1ccc(O)cc1O)c1cc(Br)c(O)cc1O (configuration not stated)
Which order do these items take when sorted by rising MIC? List them. Give me the labels in the order the question wants.
a, c, b
